endpoint-name: melting point

Request: Quickly give me recorded melting point for COC(=O)c1cc(O)cc(O)c1C
Response: 136 to 138 °C

Request: Identify measured melting point associated with O=C(O)/C=C\C(=O)Nc1ccc2c(=O)n3c(nc2c1)C(=Cc1ccccc1)CC3
Response: 210 to 230 °C

Request: Please give the documented melting point of O=[N+]([O-])c1cc(Cl)c(CCN2CCN(c3nsc4ccccc34)CC2)cc1Cl
Response: 153 to 157 °C

Request: Please give the documented melting point of Oc1ccc2cc(Br)ccc2c1Cl
Response: 100 to 101 °C

Request: Output melting point of CC(=O)c1c(-c2ccc(Cl)cc2)c(-c2ccc(Cl)cc2)nn(CCO)c1=O
Response: 191 to 193 °C

Request: Fill in melting point for record COc1ccc2c(c1)N(C(C)=O)C1=C(S2)C(S(C)(=O)=O)=CCC1=O
Response: 160 °C

Request: Annotate the compound Cc1cc(C(C)(C)C)c(O)cc1[N+](=O)[O-] with its measured melting point.
Response: 96 to 98 °C

Request: Given the compound CCCc1c(OCCCCCCc2ccc3cc(OCc4ccccc4)c(OCc4ccccc4)cc3c2)ccc(C(=O)OCc2ccccc2)c1O , write its reported melting point.
Response: 94 to 97 °C

Request: Identify the reported melting point for the following entry. Cc1c(C#N)c(-c2ccc(C#N)cc2)c(C)n1Cc1ccc(Cl)c(C(O)C(F)(F)F)c1 (stereo unspecified)
Response: 196 to 198 °C

Request: Identify measured melting point corresponding to Cc1ccc(CC(CC(=O)Oc2ccc([N+](=O)[O-])cc2)C(=O)Oc2ccc([N+](=O)[O-])cc2)cc1 (stereo unspecified)
Response: 97 to 98 °C

Request: Specify melting point for c1ccc2c(c1)ncc1nncn12 and stop.
Response: 238 to 239 °C

Request: Given the compound COc1cc2cc(CO)c(CO)c(-c3ccnc(NN)c3)c2cc1OC , write its reported melting point.
Response: 214 to 220 °C

Request: // fetch melting point given entry Cn1c(C(F)(F)F)cc(=O)n(-c2c(F)cc(Cl)c3ccoc23)c1=O
Response: 127 to 128 °C

Request: Recall and state the measured melting point for CC/C(=C(\c1ccc(/C=C/C(=O)O)cc1)c1ccc(OC(=O)OC)cc1)c1ccccc1 .
Response: 140 to 142 °C

Request: Give the reported melting point for this compound. CSc1nc(O)cc(=O)n1C
Response: 198 °C

Request: Give the reported melting point for this compound. CCCn1c(=O)n(C)c(=O)c2[nH]c(-c3cc(S(=O)(=O)NCCNC)ccc3OCC)c(Cl)c21
Response: 226 °C

Request: Specify measured melting point for OCCOCC(O)c1ccc2sccc2c1 (stereo unspecified) .
Response: 119 to 120 °C

Request: Give melting point for O=C(O)C(=O)c1ccc(OCCCc2ccccc2)cc1
Response: 58 to 59 °C

Request: Answer with the recorded melting point for the compound listed here: O=C1CCC(CCN2CC=C(c3ccccc3)CC2)CC1
Response: 94 to 96 °C

Request: Give recorded melting point. CCCOc1ccccc1-c1nc2nc(OC)nnc2c(=O)[nH]1
Response: 234 to 235 °C

Request: Quick one: give measured melting point for COC(=O)CCn1c(=O)n(CCN2CCN(c3ccc(F)cc3)CC2)c(=O)c2cscc21
Response: 165 to 166 °C

Request: Tell me its melting point given CCCc1nn(C)c(C(N)=O)c1NC(=O)c1ccccc1OCC as the entry.
Response: 153 to 154 °C

Request: Answer with reported melting point of COc1cccc([C@H]2O[C@H](CC(=O)NCCc3occc3C(=O)O)C(=O)N(CC(C)(C)CO)c3ccc(Cl)cc32)c1OC
Response: 126 to 129 °C

Request: Report measured melting point; entry is CCn1ncnc1COc1nn2c(-c3ccccc3F)nncc2c1-c1ccco1
Response: 182 to 183 °C

Request: Note down melting point recorded for N#Cc1c2c(c3c(c1N1CCCC1)Cc1ccccc1-3)Cc1ccccc1-2
Response: 158 to 160 °C

Request: Using known records, supply melting point for CC(C)NC1=NS(=O)(=O)c2cc(Cl)cc(Cl)c2N1
Response: > 230 °C

Request: Supply reported melting point belonging to this compound: C#Cc1ccc(C#Cc2ccncc2)s1
Response: 134 to 136 °C

Request: # return recorded melting point for input CCCCCCCCCCCCCCN(O)C(=O)N(C)C
Response: 64 to 66 °C

Request: Input COC(=O)C(=O)c1ccc(OCCOc2ccc(OC)c(OC)c2)cc1 , output reported melting point.
Response: 93 to 94 °C

Request: Give a short answer stating reported melting point for O=[N+]([O-])c1ccc(Oc2ccc(C(F)(F)F)cc2Cl)nc1O .
Response: 87 to 93 °C

Request: For O=c1n(-c2cc(O)c(Cl)cc2Cl)nc2n1CCCC2 , write its melting point.
Response: 211 to 212 °C

Request: Name the recorded melting point of the item CCc1cccc2c(-c3nc(OC)cc(OC)n3)c(C)[nH]c12 in your answer.
Response: 90.3 to 94.8 °C

Request: Tell me its melting point given CCCNc1ccc(C#CCCN2CC=C(c3ccccc3)CC2)nc1 as the entry.
Response: 138 to 139 °C

Request: Tell me melting point reported for COc1ccc(COC(=O)NCCc2c[nH]c3ccc(F)cc23)cc1
Response: 118 to 119 °C

Request: Check the records and state melting point for CCCCOc1cccc(C[C@H](NC(C)=O)[C@H](O)CNCc2cccc(CC)c2)c1
Response: 112 to 114 °C

Request: Answer with the recorded melting point of COC(=O)c1c(Cl)cc(Cl)cc1NC(=O)CSc1ccc(N)cc1 only.
Response: 114 to 116 °C

Request: Fill in melting point for record c1cnc2ncn(CCCCc3nnnn3C3CCCCC3)c2c1
Response: 143 to 146 °C

Request: Give recorded melting point. CCCCNc1ccc2n[nH]c(=O)n2n1
Response: 259 to 261 °C

Request: Supply melting point value. Item: O=C(O)CCc1ccccc1CNC(=O)C1Cc2ccccc2N1S(=O)(=O)c1ccc(-c2cccc(C(F)(F)F)c2)cc1 (stereo unspecified)
Response: 94 °C

Request: Answer with the recorded melting point of CCCOc1ccc(Br)c(C(=O)C=Cc2ccc3c(c2)OCO3)c1 only.
Response: 80 to 82 °C

Request: Provide one value: measured melting point of CSc1nc(-c2ccccn2)n(-c2ccc(F)cc2)c(=O)c1C#N
Response: 221 to 227 °C

====

Record form. Attribute: melting point. Fill in for each entry.

Request: Given COC(=O)c1ccc(Cn2ncc3ccccc32)cc1 , respond with its melting point.
Response: 89 to 90 °C

Request: Annotate the compound Cc1cc2c(s1)Nc1ccccc1N=C2N1CCN[C@@H](COc2ccccc2)C1 with its measured melting point.
Response: 64 to 81 °C

Request: Give recorded melting point. O=C(Nc1cc(-c2cc(Nc3ccc(N4CCNCC4=O)cn3)c(=O)[nH]n2)ccc1F)c1cc2c(s1)CCCC2
Response: 285 to 287 °C

Request: # return recorded melting point for entry COC(=O)CC[C@H]1CC[C@@H](n2c(C)nn(-c3ccc(C#N)cc3)c2=O)CC1
Response: 92 to 96 °C

Request: Input CCCC(N)(CO)CCCc1ccc(Sc2cccc(OCc3ccccc3)c2)cc1Cl (single isomer, unassigned; (+)) , output reported melting point.
Response: 55 to 57 °C

Request: Recall and state the measured melting point for CCc1ccc2[nH]c(=O)oc(=O)c2c1 .
Response: 178 to 181 °C

Request: Return melting point for the following compound: CC1CC(c2cc3c(F)cccc3s2)CCN1 (stereo not given)
Response: 63 to 65 °C

Request: Check the records and state melting point for CCOC(=O)C1=CCCCC1S(=O)(=O)Nn1cccc1CC (stereo not given)
Response: 77 to 78 °C

Request: Answer with the recorded melting point of COc1c(CS(=O)(=O)C2=NOC(C)(C)C2)c(C(F)(F)F)nn1C only.
Response: 113 to 114 °C

Request: Output melting point of CC(=O)Nc1ccc(C(=O)N(C)Cc2cccc(-c3ccc(CC4SC(=O)NC4=O)cc3)c2)cc1 (stereo not given)
Response: 207 °C

====

I'd appreciate it if you could supply melting point values for the items below.

Request: Supply reported melting point belonging to this molecule: CC(=O)N[C@@H](C)COc1ccc2nc(-c3ccc(OCC4CC4)c(F)c3)oc2c1
Response: 174 °C

Request: Give recorded melting point. NC(=O)N[C@@H]1CN2C(=O)N(c3cc(Cl)nc(Cl)c3)C(=O)[C@@]2(Cc2ccc(OC(F)(F)F)cc2)C1
Response: 142 °C

Request: Report measured melting point; entry is C#CCOc1cc(NC(=O)CC(CC(=O)O)C(F)(F)F)ccc1Cl (stereo not given)
Response: 128 to 130 °C

Request: For the molecule CP(C)(=O)C1CC(c2ccccc2)=NO1 (stereo not given) , give its measured melting point value.
Response: 153 °C

Request: Return value of melting point for input Cc1coc(-c2ccccc2)c(-c2ccc(Cl)c(Cl)c2)c1=O , no commentary.
Response: 104 °C

Request: Read the entry Cc1oncc1C(=O)N1CCOCC1 and write its reported melting point.
Response: 42 to 44 °C

Request: In one line, give reported melting point of the entry CC#Cc1ccc(NC(=O)c2ccccc2NCc2ccc(=O)[nH]c2)cc1C(F)(F)F .
Response: 208 to 212 °C

Request: Assign melting point to the following record: COC(=O)C1=Cc2cc(Br)ccc2N2CCCC2C1 (stereo not given)
Response: 136 to 139 °C

Request: Name the recorded melting point of the molecule listed here: Cn1c(COc2ccc(CC3SC(=O)NC3=O)cc2)nc2ccc(Oc3ccc(NS(C)(=O)=O)cc3)cc21 (stereo not given)
Response: 225 to 226 °C

Request: Respond only with melting point recorded for O=C(O)CS(=O)(=O)Nc1ccc(F)cc1F
Response: 110 to 112 °C

Request: Report melting point for COc1cc(Cn2c(-c3ccc(OCc4ccccc4)cc3)c(C)c3cc(OCc4ccccc4)ccc32)ccc1OCCBr
Response: 150 to 152 °C

Request: Report measured melting point; entry is CC12CCC(=O)C=C1CCC1C2C2CC3(C(O)O2)C(C(=O)COC(=O)CC(CC(=O)O)c2ccc(O)cc2)CCC13 (stereo not given)
Response: 145 to 152 °C

Request: Retrieve melting point measured for CCN(CC)CC1CCN(c2c(F)cc3c(=O)c(C(=O)O)cn(CC)c3c2F)C1 (stereo not given) and print it.
Response: 210 to 211 °C

Request: Recall and state the measured melting point for CN(C)C(=O)Cc1nnc2n1-c1ccc(Cl)cc1C(c1ccccc1)=NC2 .
Response: 204 to 206 °C

Request: Consider the molecule Clc1ccc(-c2nnc(CSCCOc3ccccc3)o2)cn1 . State its measured melting point.
Response: 113 to 115 °C

Request: Supply melting point value. Item: COc1ccc(-c2cc(C(=O)O)c(=O)n(CCCc3ccc(F)cc3)n2)cc1F
Response: 185 to 187 °C

Request: Tell us which melting point value is on record for CC(=O)Nc1ccc2c(c1)CC(=O)N2CCN1CCN(Cc2ccccc2)CC1
Response: 145 to 147 °C

Request: Given the molecule COc1cc(OC)nc(NS(=O)(=O)C(C(N)=O)C(C)C)n1 (stereo not given) , write its reported melting point.
Response: 147 to 150 °C

Request: Indicate its recorded melting point; the molecule in question is COc1cccc(OC)c1C(=O)Nc1nnc(-c2ccccc2Cl)s1
Response: 235 to 237 °C

Request: Name the recorded melting point of the molecule listed here: COc1ccc(C2=NN(C3CCN(C(=O)CN4C(=O)CCC4=O)CC3)C(=O)C(C)(C)C2)cc1OC
Response: 177 to 179 °C
